target: BIRC2-BIR3 domain (Homo sapiens, UniProt Q13490); assay: Fluorescence polarization (FP) competition assay with fluorescent SMAC probe; conditions: BIRC2 BIR3 domain; 5 nM probe, 30 nM protein; approximations; read-out: FP assay IC50 (estimated)
Sequence (Q13490 260-352): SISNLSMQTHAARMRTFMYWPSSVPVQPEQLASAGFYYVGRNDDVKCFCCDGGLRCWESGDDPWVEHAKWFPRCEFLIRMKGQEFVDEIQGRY

[
  {
    "Compound": "CN[C@@H](C)C(=O)N[C@H](C(=O)N1CCC[C@H]1C(=O)N[C@@H]1CCCc2ccccc21)C1CCCCC1 [A 410099.1]",
    "IC50 (nM)": 5.4
  }
]

###

molecular target: BIRC3 (Homo sapiens, UniProt Q13489); assay: NanoBRET cellular target engagement, full-length BIRC3
Sequence (Q13489 whole entry): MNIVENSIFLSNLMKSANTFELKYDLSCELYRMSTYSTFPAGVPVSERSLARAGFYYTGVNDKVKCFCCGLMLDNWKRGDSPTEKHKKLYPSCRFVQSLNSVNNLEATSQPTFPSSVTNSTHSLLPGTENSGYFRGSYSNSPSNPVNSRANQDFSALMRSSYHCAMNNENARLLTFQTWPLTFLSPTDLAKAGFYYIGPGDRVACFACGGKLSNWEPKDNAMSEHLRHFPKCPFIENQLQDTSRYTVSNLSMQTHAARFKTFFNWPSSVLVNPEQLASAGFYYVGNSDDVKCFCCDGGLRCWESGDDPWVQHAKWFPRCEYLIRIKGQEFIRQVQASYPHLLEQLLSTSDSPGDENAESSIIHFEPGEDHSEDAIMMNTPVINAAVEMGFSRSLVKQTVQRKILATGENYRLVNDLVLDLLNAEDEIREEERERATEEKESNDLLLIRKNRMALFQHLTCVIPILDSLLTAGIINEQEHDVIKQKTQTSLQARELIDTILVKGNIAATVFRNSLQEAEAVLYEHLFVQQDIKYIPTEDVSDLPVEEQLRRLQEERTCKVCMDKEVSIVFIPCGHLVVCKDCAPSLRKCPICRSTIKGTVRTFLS
This section presents molecules with their documented log10 EC50 values.
Recorded metric: log10 EC50 (log10 of the value in nM)

[
  {
    "Test smiles": "CN[C@@H](C)C(=O)N[C@H](C(=O)N1CCC[C@H]1C(=O)N[C@@H]1CCCc2ccccc21)C1CCCCC1",
    "Recorded metric": "log10 EC50",
    "Value observed": 0.96
  },
  {
    "Test smiles": "CN[C@@H](C)C(=O)N[C@H](C(=O)N1CCC[C@H]1C(=O)N[C@H]1c2ccccc2C[C@H]1OCC#CC#CCO[C@@H]1Cc2ccccc2[C@@H]1NC(=O)[C@@H]1CCCN1C(=O)[C@@H](NC(=O)[C@H](C)NC)C1CCCCC1)C1CCCCC1",
    "Recorded metric": "log10 EC50",
    "Value observed": 1.91
  },
  {
    "Test smiles": "CN[C@@H](C)C(=O)N[C@H](C(=O)N1CCC[C@H]1C(=O)Nc1sc(-c2ncco2)nc1-c1ccccc1)C1CCCCC1",
    "Recorded metric": "log10 EC50",
    "Value observed": 2.87
  },
  {
    "Test smiles": "CC[C@H](NC(=O)[C@H](C)NC)C(=O)N1C[C@@H](O)C[C@H]1Cc1c(-c2[nH]c3cc(F)ccc3c2C[C@@H]2C[C@H](O)CN2C(=O)[C@H](CC)NC(=O)[C@H](C)NC)[nH]c2cc(F)ccc12",
    "Recorded metric": "log10 EC50",
    "Value observed": 2.90
  },
  {
    "Test smiles": "CN[C@@H](C)C(=O)N[C@H]1CN(C(=O)CC(C)C)CC[C@H]2CC[C@@H](C(=O)NC(c3ccccc3)c3ccccc3)N2C1=O",
    "Recorded metric": "log10 EC50",
    "Value observed": 1.79
  }
]
